Data provenance is patent US10227357B2.

# MEASURED_TARGET: c-kit mutant D816V (Homo sapiens, UniProt P10721, D816V/DEL694-753)
# Construct: residues 551-934, kinase insertion domain residues 694-753 deleted; 6x-histidine (N); made in house; host or cells: E. coli Arctic Express (DE3) RIL (Stratagene)
# Sequence (P10721 with tags, fused parts or gaps DEL694-753/D816V): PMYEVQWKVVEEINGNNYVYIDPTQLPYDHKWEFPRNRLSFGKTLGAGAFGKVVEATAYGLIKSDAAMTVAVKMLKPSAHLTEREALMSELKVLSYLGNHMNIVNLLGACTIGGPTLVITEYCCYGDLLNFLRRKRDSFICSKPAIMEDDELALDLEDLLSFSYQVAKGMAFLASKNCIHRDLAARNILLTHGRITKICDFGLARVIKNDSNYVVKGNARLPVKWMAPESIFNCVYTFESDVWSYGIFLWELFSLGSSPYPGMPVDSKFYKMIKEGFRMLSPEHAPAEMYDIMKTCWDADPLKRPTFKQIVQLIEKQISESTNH
# PROTOCOL_SUMMARY: c-Kit mutant D816V biochemical assay, AlphaScreen
# CONDITION_SET: c-kit D816V biochemical inhibitory activity; read-out: Biochemical activity (IC50 μM) Kit D816V
ENDPOINT: IC50

query: If you can, please state the reported IC50 value of O=C(NCc1ccc(F)cc1)N1CCN(c2ncnc3cc(C4CCNCC4)sc23)CC1 [P-0596] .
result: 1 to 10 µM

query: If you can, please state the reported IC50 value of Cc1nn(C)cc1-c1cc2c(N3CCN(C(=O)N[C@@H](C)c4ccc(Cl)cc4)CC3)ncnc2[nH]1 [P-0716] .
result: 0.0001 to 1 µM

query: If you can, please state the reported IC50 value of Cc1cc2c(-c3ccc(NS(=O)(=O)c4ccc5c(c4)CCC5)cc3)ncnc2[nH]1 [P-0302] .
result: 0.0001 to 1 µM

query: If you can, please state the reported IC50 value of O=S(=O)(Nc1cccc(-c2ncnc3[nH]c(-c4ccc(F)cc4)cc23)c1)C1CC1 [P-0413] .
result: 1 to 10 µM

query: If you can, please state the reported IC50 value of O=S(=O)(Nc1ccc(-c2cc3c(-c4ccc(NS(=O)(=O)C5CC5)cc4F)ncnc3[nH]2)c(F)c1)C1CC1 [P-0387] .
result: 0.0001 to 1 µM

query: If you can, please state the reported IC50 value of Cc1cc2ncnc(-c3ccc(NS(C)(=O)=O)cc3)c2s1 [P-0622] .
result: 1 to 10 µM

query: If you can, please state the reported IC50 value of O=S(=O)(Nc1ccc(-c2ncnc3[nH]c(-c4ccc(F)cc4)cc23)cc1F)N1CCCC1 [P-0405] .
result: 10 to 200 µM

query: If you can, please state the reported IC50 value of NS(=O)(=O)c1cccc(-c2cc3c(N4CCN(C(=O)Nc5ccc(OC(F)(F)F)cc5)CC4)ncnc3[nH]2)c1 [P-0083] .
result: 0.0001 to 1 µM

###

# MEASURED_TARGET: c-kit mutant D816V (Homo sapiens, UniProt P10721, D816V/DEL694-753)
# Construct: residues 551-934, kinase insertion domain residues 694-753 deleted; 6x-histidine (N); made in house; host or cells: E. coli Arctic Express (DE3) RIL (Stratagene)
# PROTOCOL_SUMMARY: c-Kit mutant D816V biochemical assay, AlphaScreen
# CONDITION_SET: c-kit D816V biochemical inhibitory activity; read-out: Biochemical activity (IC50 μM) Kit D816V
ENDPOINT: IC50

query: If you can, please state the reported IC50 value of Cc1nn(C)cc1-c1cc2c(N3CCN(C(=O)N[C@@H](C)c4ccc(F)cc4)CC3)ncnc2[nH]1 [P-0724] .
result: 0.0001 to 1 µM

query: If you can, please state the reported IC50 value of O=C(NCc1ccc(F)cc1)N1CCN(c2ncnc3[nH]c(-c4ccc(Cl)cc4)cc23)CC1 [P-0213] .
result: 10 to 200 µM

query: If you can, please state the reported IC50 value of CCc1ccc(S(=O)(=O)NC2CCN(c3ncnc4[nH]c(-c5cnn(C)c5)cc34)CC2)cc1 [P-0676] .
result: 0.0001 to 1 µM

query: If you can, please state the reported IC50 value of O=C(Nc1ccc(OC(F)(F)F)cc1)N1CCN(c2ncnc3[nH]c(-c4cnc(C5CC5)nc4)cc23)CC1 [P-0112] .
result: 10 to 200 µM

###

So I've got a bunch of compounds here, and I need their IC50 values.
# MEASURED_TARGET: c-kit mutant D816V (Homo sapiens, UniProt P10721, D816V/DEL694-753)
# Construct: residues 551-934, kinase insertion domain residues 694-753 deleted; 6x-histidine (N); made in house; host or cells: E. coli Arctic Express (DE3) RIL (Stratagene)
# PROTOCOL_SUMMARY: c-Kit mutant D816V biochemical assay, AlphaScreen
# CONDITION_SET: c-kit D816V biochemical inhibitory activity; read-out: Biochemical activity (IC50 μM) Kit D816V

query: If you can, please state the reported IC50 value of COc1cccc(NC(=O)N2CCN(c3ncnc4[nH]c(-c5cccnc5)cc34)CC2)c1 [P-0231] .
result: 1 to 10 µM

query: If you can, please state the reported IC50 value of C[C@H](NC(=O)N1CCN(c2ncnc3cc(-c4ccc(F)cc4)sc23)CC1(C)C)c1ccc(Cl)cc1 [P-0575] .
result: 0.0001 to 1 µM

query: If you can, please state the reported IC50 value of Cc1nc(-c2cccc(NC(=O)N3CCN(c4ncnc5[nH]ccc45)CC3)c2)no1 [P-0151] .
result: 10 to 200 µM

query: If you can, please state the reported IC50 value of Cn1cc(-c2cc3ncnc(N4CCN(C(=O)NCc5ccccc5)CC4)c3s2)cn1 [P-0626] .
result: 1 to 10 µM

###

# MEASURED_TARGET: c-kit mutant D816V (Homo sapiens, UniProt P10721, D816V/DEL694-753)
# Construct: residues 551-934, kinase insertion domain residues 694-753 deleted; 6x-histidine (N); made in house; host or cells: E. coli Arctic Express (DE3) RIL (Stratagene)
# PROTOCOL_SUMMARY: c-Kit mutant D816V biochemical assay, AlphaScreen
# CONDITION_SET: c-kit D816V biochemical inhibitory activity; read-out: Biochemical activity (IC50 μM) Kit D816V
ENDPOINT: IC50

query: If you can, please state the reported IC50 value of N#Cc1ccc(-c2cc3c(N4CCN(C(=O)Nc5ccc(OC(F)(F)F)cc5)CC4)ncnc3[nH]2)cc1 .
result: 0.0001 to 1 µM

query: If you can, please state the reported IC50 value of Cc1cc2c(-c3ccc(NS(=O)(=O)c4cc(F)ccc4F)cc3F)ncnc2[nH]1 .
result: 1 to 10 µM

query: If you can, please state the reported IC50 value of COc1cccc([C@H](C)NC(=O)N2CCN(c3ncnc4cc(N5CCOCC5)sc34)CC2(C)C)c1 .
result: 0.0001 to 1 µM

query: If you can, please state the reported IC50 value of Cc1cc2c(-c3ccc(NS(C)(=O)=O)cc3)ncnc2[nH]1 .
result: 1 to 10 µM

query: If you can, please state the reported IC50 value of O=S(=O)(Nc1ccc(-c2ncnc3[nH]c(-c4ccc(F)cc4)cc23)cc1F)c1ccc(F)cc1 .
result: 1 to 10 µM

query: If you can, please state the reported IC50 value of O=S(=O)(Nc1ccc(-c2ncnc3[nH]c(C4CCCC4)cc23)cc1)c1ccc(F)cc1 .
result: 0.0001 to 1 µM

query: If you can, please state the reported IC50 value of N#Cc1cccc(-c2cc3c(N4CCN(C(=O)NCc5ccc(F)cc5)CC4)ncnc3[nH]2)c1 .
result: 1 to 10 µM

query: If you can, please state the reported IC50 value of Cc1n[nH]c2ncnc(-c3ccc(NS(=O)(=O)c4cccc(Cl)c4)cc3)c12 .
result: 0.0001 to 1 µM

query: If you can, please state the reported IC50 value of Cc1ccc(S(=O)(=O)Nc2ccc(-c3ncnc4cc(C5=CCN(C(=O)N6CCOCC6)CC5)sc34)cc2)cc1 .
result: 0.0001 to 1 µM

query: If you can, please state the reported IC50 value of Cc1ccc([C@H](C)NC(=O)N2CCN(c3ncnc4[nH]c(-c5ccc(F)cc5)cc34)CC2)cc1 .
result: 0.0001 to 1 µM

query: If you can, please state the reported IC50 value of CCc1ccc(S(=O)(=O)NC2CCN(c3ncnc4[nH]ccc34)CC2)cc1 .
result: 10 to 200 µM

query: If you can, please state the reported IC50 value of O=C(Nc1ccc(OC(F)F)cc1)N1CCN(c2ncnc3[nH]c(-c4ccc(F)cc4)cc23)CC1 .
result: 1 to 10 µM

query: If you can, please state the reported IC50 value of Cc1ccc(S(=O)(=O)NC2CCN(c3ncnc4[nH]c(-c5cnn(C)c5)cc34)CC2C)cc1 (centres unmarked) .
result: 0.0001 to 1 µM

query: If you can, please state the reported IC50 value of O=C(Nc1ccc(F)cc1)N1CC2CCC1CN2c1ncnc2cc(-c3ccc(F)cc3)sc12 (centres unmarked) .
result: 1 to 10 µM

query: If you can, please state the reported IC50 value of Cc1cc2c(N3CCN(C(=O)N[C@@H](C)c4ccc(F)cc4)[C@H](C)C3)ncnc2[nH]1 .
result: 1 to 10 µM

query: If you can, please state the reported IC50 value of C[C@@H]1CN(c2ncnc3[nH]c(-c4ccncc4)cc23)CCN1C(=O)Nc1ccc(Cl)cc1 .
result: 0.0001 to 1 µM

query: If you can, please state the reported IC50 value of CCCS(=O)(=O)Nc1cccc(-c2ncnc3[nH]c(-c4ccc(F)cc4)cc23)c1 .
result: 10 to 200 µM
